From: paper PMC4336329

system_name: human ether-à-go-go-related gene (hERG) potassium channel (human, UniProt Q12809);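 also: peak tail current of the secondary pulse compared with the same well before compound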
Sequence (Q12809 whole entry, looked up): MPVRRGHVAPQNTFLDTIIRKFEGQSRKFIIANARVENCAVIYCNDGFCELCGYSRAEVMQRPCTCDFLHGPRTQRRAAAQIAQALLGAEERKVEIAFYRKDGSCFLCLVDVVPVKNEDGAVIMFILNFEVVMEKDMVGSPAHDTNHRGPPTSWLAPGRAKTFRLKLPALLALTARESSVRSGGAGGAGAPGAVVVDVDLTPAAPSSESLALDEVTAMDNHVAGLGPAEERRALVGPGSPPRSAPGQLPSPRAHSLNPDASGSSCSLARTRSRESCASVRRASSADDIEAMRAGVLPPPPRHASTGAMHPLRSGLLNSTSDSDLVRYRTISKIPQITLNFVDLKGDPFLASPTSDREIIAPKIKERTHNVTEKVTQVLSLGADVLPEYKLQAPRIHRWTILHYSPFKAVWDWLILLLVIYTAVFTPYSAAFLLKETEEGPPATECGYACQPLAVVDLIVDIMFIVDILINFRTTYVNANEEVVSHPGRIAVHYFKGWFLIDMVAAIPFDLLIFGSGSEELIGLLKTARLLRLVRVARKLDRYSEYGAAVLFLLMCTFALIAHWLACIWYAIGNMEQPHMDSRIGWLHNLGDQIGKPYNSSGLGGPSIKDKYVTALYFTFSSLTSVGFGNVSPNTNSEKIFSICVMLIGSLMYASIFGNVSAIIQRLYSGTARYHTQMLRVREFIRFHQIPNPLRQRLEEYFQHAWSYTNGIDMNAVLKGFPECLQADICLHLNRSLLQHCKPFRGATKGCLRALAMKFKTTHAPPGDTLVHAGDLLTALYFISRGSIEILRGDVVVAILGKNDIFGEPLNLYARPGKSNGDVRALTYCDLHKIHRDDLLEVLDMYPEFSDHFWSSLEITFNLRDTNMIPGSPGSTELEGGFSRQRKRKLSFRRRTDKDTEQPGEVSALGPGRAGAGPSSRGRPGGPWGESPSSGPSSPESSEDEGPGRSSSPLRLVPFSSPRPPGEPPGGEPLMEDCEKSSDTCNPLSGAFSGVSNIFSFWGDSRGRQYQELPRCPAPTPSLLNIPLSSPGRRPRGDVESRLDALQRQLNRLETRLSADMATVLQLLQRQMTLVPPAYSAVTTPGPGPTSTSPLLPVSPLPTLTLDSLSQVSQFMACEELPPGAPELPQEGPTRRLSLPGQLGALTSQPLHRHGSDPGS
method_summary: primary screen, population patch clamp on CHO cells stably expressing hERG; higher = less effect of the substance
The campaign covered roughly 310,000 compounds. About 14,000 (4.5%) showed an effect of 50% or more. The effect is printed as a negative number. This excerpt belongs to a sample that is enriched for strong results.
readout_label: hERG current change (%, negative = inhibition) at 10uM (%)
Expressed in %, but write only the number.

Recorded hERG current change (%, negative = inhibition) at 10uM for `Cc1nc(N2CCN(c3ccccn3)CC2)c2c(C)c(C(=O)Nc3ccc(Cl)cc3)sc2n1` , please?
-7.01

And for CCOc1ccc(/C=N/NC(=O)c2ccccc2C)cc1CN1CC2CC(C1)c1cccc(=O)n1C2 (stereo not drawn) ?
-26.8

And for `Cc1ccc(NC(=O)c2sc3ncn(CC(=O)N4CCN(c5ccccn5)CC4)c(=O)c3c2C)cc1Cl` ?
-7.77

And for `Cc1nc(N2CCN(c3ccccn3)CC2)c2c(C)c(C(=O)Nc3ccc(Br)cc3C)sc2n1` ?
11.6

And for `Cc1nc(N2CCN(c3ccccn3)CC2)c2c(C)c(C(=O)Nc3ccc(F)c(Cl)c3)sc2n1` ?
14.2

And for CCCN(C(=O)CSc1nnc(-c2ccoc2C)n1N)C1CCS(=O)(=O)C1 (stereo not drawn) ?
5.3

And for `Clc1ccc(-n2nnnc2-c2cnc3ccccc3c2-c2ccccc2)cc1` ?
1.26

And for `Cc1ccc(C(=O)N/N=C2\CCSC2)cc1[N+](=O)[O-]` ?
-2.95

And for `Cc1cc(C)c(S(=O)(=O)c2cc(F)ccc2C)c(=O)[nH]1` ?
18.1
